Each recorded value in this set is attributed to patent US20250339409A1.

Test system: anti collagen antibodies induced arthritis (ACAIA)
methodNotes: Anti collagen antibodies induced arthritis (ACAIA) in mice, intra-articular treatment: paw thickness, arthritis clinical score, body weight
measurementConditions: BETi1 0.1 mg/kg IA (Group 4); Av
propertyName: Weight per day, Baseline (g)
Enter your answer as a number in g; do not include the unit.

What measured Weight per day, Baseline goes with Cn1cc(-c2cccc(O)c2Oc2ccccc2)c2cc[nH]c2c1=O ? 20.4

----------
methodNotes: Solubility of BETi1 in water (HPLC) and in solvents (visual observation)
Assay type: physicochemical
measurementConditions: organic solvent or mixture, thermodynamic from solid; Dichloromethane; 25° C.; visual observation; read-out: Approximate solubility
propertyName: solubility

What solubility value was documented for this molecule, Cn1cc(-c2cccc(O)c2Oc2ccccc2)c2cc[nH]c2c1=O ? < 5000 µg/mL

----------
methodNotes: Toxicokinetics in dogs after intra-articular injection: plasma concentrations
Format: in vivo, Beagle dogs
measurementConditions: Beagle, dog, plasma; 75 mg/animal; Female; Study Day 1; read-out: Plasma Cmax
propertyName: Cmax

Look up Cmax: Cn1cc(-c2cccc(O)c2Oc2ccccc2)c2cc[nH]c2c1=O 56.6 ng/mL

----------
methodNotes: Solubility of BETi1 in solutions of hydroxypropyl-β-cyclodextrin in saline (HPLC)
Format: physicochemical
measurementConditions: 20% w/w hydroxypropyl-β-cyclodextrin in saline, aqueous with cosolvent or surfactant or cyclodextrin, thermodynamic from solid; 2HP-β-CD - Saline (20%:80%); 25° C.; HPLC; read-out: Approximate solubility
propertyName: solubility
Note: state the figure and append the unit.

Tell me the measured solubility of Cn1cc(-c2cccc(O)c2Oc2ccccc2)c2cc[nH]c2c1=O , please. 8990 µg/mL

----------
methodNotes: Toxicokinetics in dogs after intra-articular injection: plasma concentrations
Type: in vivo, Beagle dogs
measurementConditions: Beagle, dog, plasma; 75 mg/animal; Male; Study Day 1; read-out: Plasma AUC0-672 h
propertyName: AUC(0-t) (ng·h/mL)
Dear colleague, please return just the value in ng·h/mL, with no unit written.

Give its AUC(0-t) value. Item: Cn1cc(-c2cccc(O)c2Oc2ccccc2)c2cc[nH]c2c1=O [BETi1] 3070

----------
Tested on: anti collagen antibodies induced arthritis (ACAIA)
methodNotes: Anti collagen antibodies induced arthritis (ACAIA) in mice, intra-articular treatment: paw thickness, arthritis clinical score, body weight
measurementConditions: BETi1 1 mg/kg IA (Group 3); Av
propertyName: Weight per day, Day 12 (g)
Form entry: value (g) — number only.

Any idea what Weight per day, Day 12 came out for Cn1cc(-c2cccc(O)c2Oc2ccccc2)c2cc[nH]c2c1=O [BETi1] on anti collagen antibodies induced arthritis (ACAIA)? 20.1

----------
Tested on: anti collagen antibodies induced arthritis (ACAIA)
methodNotes: Anti collagen antibodies induced arthritis (ACAIA) in mice, intra-articular treatment: paw thickness, arthritis clinical score, body weight
measurementConditions: BETi1 0.1 mg/kg IA (Group 4); Av
propertyName: Weight per day, Day 10

# lookup: Weight per day, Day 10 of Cn1cc(-c2cccc(O)c2Oc2ccccc2)c2cc[nH]c2c1=O [BETi1] 18.1 g

----------
methodNotes: Toxicokinetics in dogs after intra-articular injection: plasma concentrations
Type: in vivo, Beagle dogs
measurementConditions: both sexes, Beagle, dog, plasma, other: intra-articular injection, 7.5 mg/animal; 7.5 mg intra-articular; 672 h; read-out: Plasma concentration of BETi1
propertyName: concentration at 672 h (ng/mL)
Field: numeric (ng/mL). Do not append units.

I have this molecule here, Cn1cc(-c2cccc(O)c2Oc2ccccc2)c2cc[nH]c2c1=O [BETi1] , and I need its recorded concentration at 672 h. 0

----------
methodNotes: Toxicokinetics in dogs after intra-articular injection: plasma concentrations
Format: in vivo, Beagle dogs
measurementConditions: both sexes, Beagle, plasma, other: intra-articular injection, 75 mg/animal; dog, intra-articular, 75 mg; read-out: plasma level at four weeks post-treatment
propertyName: concentration at 4 weeks
Form field: result (number plus unit)

Look at this compound and give its reported concentration at 4 weeks. Cn1cc(-c2cccc(O)c2Oc2ccccc2)c2cc[nH]c2c1=O [BETi1] 2 nM

----------
methodNotes: Solubility of BETi1 in water (HPLC) and in solvents (visual observation)
Format: physicochemical
measurementConditions: polyethylene glycol 400, organic solvent or mixture; read-out: solubility in polyethylene glycol 400
propertyName: solubility

What value of measured solubility is listed for Cn1cc(-c2cccc(O)c2Oc2ccccc2)c2cc[nH]c2c1=O ? ~20 mg/mL

----------
methodNotes: Solubility of BETi1 in water (HPLC) and in solvents (visual observation)
Format: physicochemical
measurementConditions: organic solvent or mixture, thermodynamic from solid; Acetonitrile; 25° C.; visual observation; read-out: Approximate solubility
propertyName: solubility

Query: solubility; subject: Cn1cc(-c2cccc(O)c2Oc2ccccc2)c2cc[nH]c2c1=O < 5000 µg/mL

----------
methodNotes: Toxicokinetics in dogs after intra-articular injection: plasma concentrations
Type: in vivo, Beagle dogs
measurementConditions: Beagle, dog, plasma; 7.5 mg/animal; Female; Study Day 1; read-out: Plasma AUC0-672 h
propertyName: AUC(0-t) (ng·h/mL)
The figure you give is taken to be in ng·h/mL; do not add the unit.

Suppose we examine the compound Cn1cc(-c2cccc(O)c2Oc2ccccc2)c2cc[nH]c2c1=O [BETi1] ; what AUC(0-t) value has been reported? 472

----------
methodNotes: Toxicokinetics in dogs after intra-articular injection: plasma concentrations
Assay type: in vivo, Beagle dogs
measurementConditions: Beagle, dog, plasma; 75 mg/animal; Female; Study Day 1; read-out: Plasma AUC0-672 h
propertyName: AUC(0-t) (ng·h/mL)
Express it in ng·h/mL; write the number only.

Value lookup for AUC(0-t); key = Cn1cc(-c2cccc(O)c2Oc2ccccc2)c2cc[nH]c2c1=O 3760

----------
methodNotes: Toxicokinetics in dogs after intra-articular injection: synovial fluid concentrations
Type: in vivo, Beagle dogs
measurementConditions: Beagle, dog, synovial fluid; 7.5 mg/animal; Male; Study Day 1; read-out: Synovia AUC0-672 h
propertyName: AUC(0-t)

Please look up its AUC(0-t): Cn1cc(-c2cccc(O)c2Oc2ccccc2)c2cc[nH]c2c1=O [BETi1] 25400 ng·h/mL

----------
methodNotes: Toxicokinetics in dogs after intra-articular injection: plasma concentrations
Assay type: in vivo, Beagle dogs
measurementConditions: both sexes, Beagle, dog, plasma, other: intra-articular injection, 75 mg/animal; 75 mg intra-articular; 672 h; read-out: Plasma concentration of BETi1
propertyName: concentration at 672 h
Include the unit after the number when you answer.

Query (molecule): Cn1cc(-c2cccc(O)c2Oc2ccccc2)c2cc[nH]c2c1=O ; field requested: concentration at 672 h 0.505 ng/mL

----------
methodNotes: Toxicokinetics in dogs after intra-articular injection: plasma concentrations
Format: in vivo, Beagle dogs
measurementConditions: both sexes, Beagle, dog, plasma, other: intra-articular injection, 7.5 mg/animal; 7.5 mg intra-articular; 1 h; read-out: Plasma concentration of BETi1
propertyName: concentration at 1 h (ng/mL)
Lab book: enter the figure in ng/mL, no units written.

Please report the recorded concentration at 1 h for Cn1cc(-c2cccc(O)c2Oc2ccccc2)c2cc[nH]c2c1=O [BETi1] . 29.6

----------
methodNotes: Toxicokinetics in dogs after intra-articular injection: plasma concentrations
Assay type: in vivo, Beagle dogs
measurementConditions: both sexes, Beagle, dog, plasma, other: intra-articular injection, 7.5 mg/animal; 7.5 mg intra-articular; 4 h; read-out: Plasma concentration of BETi1
propertyName: concentration at 4 h
Just so you know, I need the unit written after the number.

Reported concentration at 4 h for Cn1cc(-c2cccc(O)c2Oc2ccccc2)c2cc[nH]c2c1=O : what is it? 26.1 ng/mL

----------
Tested on: anti collagen antibodies induced arthritis (ACAIA)
methodNotes: Anti collagen antibodies induced arthritis (ACAIA) in mice, intra-articular treatment: paw thickness, arthritis clinical score, body weight
measurementConditions: Dexamethasone 1 mg/kg IA (Group 7); Av
propertyName: Weight per day, Day 10 (g)
Expressed in g, but write only the number.

# query: Weight per day, Day 10 of entry C[C@@H]1C[C@H]2[C@@H]3CCC4=CC(=O)C=C[C@]4(C)[C@@]3(F)[C@@H](O)C[C@]2(C)[C@@]1(O)C(=O)CO [dexamethasone, Dexamethasone, reference compound] 18.3

----------
methodNotes: Toxicokinetics in dogs after intra-articular injection: plasma concentrations
Format: in vivo, Beagle dogs
measurementConditions: both sexes, Beagle, dog, plasma, other: intra-articular injection, 75 mg/animal; 75 mg intra-articular; 336 h; read-out: Plasma concentration of BETi1
propertyName: concentration at 336 h (ng/mL)
Dear colleague, please return just the value in ng/mL, with no unit written.

Fill in: concentration at 336 h of Cn1cc(-c2cccc(O)c2Oc2ccccc2)c2cc[nH]c2c1=O is ___ 1.95

----------
Tested on: anti collagen antibodies induced arthritis (ACAIA)
methodNotes: Anti collagen antibodies induced arthritis (ACAIA) in mice, intra-articular treatment: paw thickness, arthritis clinical score, body weight;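 also: mouse arthritis induced by IV anti-collagen mAb on day 0 plus IP LPS on day 4, with body weight, caliper paw thickness and 0-4 paw score tracked against a day 0 baseline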
measurementConditions: Dexamethasone 1 mg/kg IP (Group 6); Av
propertyName: Weight per day, Day 10 (g)
The figure you give is taken to be in g; do not add the unit.

Given the entry C[C@@H]1C[C@H]2[C@@H]3CCC4=CC(=O)C=C[C@]4(C)[C@@]3(F)[C@@H](O)C[C@]2(C)[C@@]1(O)C(=O)CO [dexamethasone, Dexamethasone, reference compound] , report its measured Weight per day, Day 10. 18.2
